Answer each item with its documented IC50 at 72 h.
# protocol-description: Cytotoxicity against human BJ cells assessed as inhibition of cell growth incubated for 72 hrs by MTS assay
# Type: toxicity, cell-based
Give bare numbers, in µM.

structure-as-smiles	observed-value
C=C(C)[C@@H]1CC[C@]2(C(=O)O)CC[C@]3(C)[C@H](CC[C@@H]4[C@@]5(C)CC=C(c6ccc(OC)cc6)C(C)(C)[C@@H]5CC[C@]43C)[C@@H]12	50

Report IC50 at 72 h for every entry below.
1. C=C(C)[C@@H]1CC[C@]2(C(=O)O)CC[C@]3(C)[C@H](CC[C@@H]4[C@@]5(C)CC=C(c6ccccc6C(=O)OC)C(C)(C)[C@@H]5CC[C@]43C)[C@@H]12
2. C=C(C)[C@@H]1CC[C@]2(C(=O)O)CC[C@]3(C)[C@H](CC[C@@H]4[C@@]5(C)CC=C(c6cccc([N+](=O)[O-])c6)C(C)(C)[C@@H]5CC[C@]43C)[C@@H]12
3. C=C(C)[C@@H]1CC[C@]2(C(=O)OCc3ccccc3)CC[C@]3(C)[C@H](CC[C@@H]4[C@@]5(C)CC=C(OS(=O)(=O)C(F)(F)F)C(C)(C)[C@@H]5CC[C@]43C)[C@@H]12

Response:
1. 38
2. 50
3. 40

====

Assign remaining at 2 h, 2 µM to each entry below.
# protocol-description: Plasma stability in human assessed as compound remaining at 2 uM measured after 120 mins by RF-MS analysis
# Type: ADME, cell-free
# assay-setup: read-out: Stability
Your reply should be a number followed by the unit it is expressed in.

Consider the following illustrative entries.
>>> df
                        structure_as_smiles  observed_value
0  C=C(C)[C@@H]1CC[C@]2(C(=O)O)CC[C@]3(C)[C@H](CC[C@@H]4[C@@]5(C)CC=C(c6cccc(O)c6)C(C)(C)[C@@H]5CC[C@]43C)[C@@H]12           86.7%
1  C=C(C)[C@@H]1CC[C@]2(C(=O)O)CC[C@]3(C)[C@H](CC[C@@H]4[C@@]5(C)CC=C(c6cccc(N)c6)C(C)(C)[C@@H]5CC[C@]43C)[C@@H]12           71.5%

Next up:
Request: Please supply the value of reported remaining at 2 h, 2 µM for the item `C=C(C)[C@@H]1CC[C@]2(C(=O)O)CC[C@]3(C)[C@H](CC[C@@H]4[C@@]5(C)CC=C(c6ccc(O)cc6)C(C)(C)[C@@H]5CC[C@]43C)[C@@H]12`
Response: 74.4%

====

Provide the recorded remaining at 0.5 h, 2 µM for the entries that follow.
# protocol-description: Microsomal stability in human liver microsome as compound remaining at 2 uM measured after 30 mins in presence of NADPH by RF-MS analysis
# Format: ADME
# assay-setup: liver microsomes, read-out: Stability
Numbers only, in %.

>>> df
                        structure_as_smiles         quantity_measured  observed_value
0  C=C(C)[C@@H]1CC[C@]2(C(=O)O)CC[C@]3(C)[C@H](CC[C@@H]4[C@@]5(C)CC=C(c6cccc(O)c6)C(C)(C)[C@@H]5CC[C@]43C)[C@@H]12  remaining at 0.5 h, 2 µM            97.8

Batch: remaining at 0.5 h, 2 µM for all items listed.
1. C=C(C)[C@@H]1CC[C@]2(C(=O)O)CC[C@]3(C)[C@H](CC[C@@H]4[C@@]5(C)CC=C(c6ccc(O)cc6)C(C)(C)[C@@H]5CC[C@]43C)[C@@H]12
2. C=C(C)[C@@H]1CC[C@]2(C(=O)O)CC[C@]3(C)[C@H](CC[C@@H]4[C@@]5(C)CC=C(c6cccc(N)c6)C(C)(C)[C@@H]5CC[C@]43C)[C@@H]12

Response:
93.2
107
